Target: Solute carrier organic anion transporter family member 1B1 (Homo sapiens, UniProt Q9Y6L6)
Sequence (Q9Y6L6 whole entry): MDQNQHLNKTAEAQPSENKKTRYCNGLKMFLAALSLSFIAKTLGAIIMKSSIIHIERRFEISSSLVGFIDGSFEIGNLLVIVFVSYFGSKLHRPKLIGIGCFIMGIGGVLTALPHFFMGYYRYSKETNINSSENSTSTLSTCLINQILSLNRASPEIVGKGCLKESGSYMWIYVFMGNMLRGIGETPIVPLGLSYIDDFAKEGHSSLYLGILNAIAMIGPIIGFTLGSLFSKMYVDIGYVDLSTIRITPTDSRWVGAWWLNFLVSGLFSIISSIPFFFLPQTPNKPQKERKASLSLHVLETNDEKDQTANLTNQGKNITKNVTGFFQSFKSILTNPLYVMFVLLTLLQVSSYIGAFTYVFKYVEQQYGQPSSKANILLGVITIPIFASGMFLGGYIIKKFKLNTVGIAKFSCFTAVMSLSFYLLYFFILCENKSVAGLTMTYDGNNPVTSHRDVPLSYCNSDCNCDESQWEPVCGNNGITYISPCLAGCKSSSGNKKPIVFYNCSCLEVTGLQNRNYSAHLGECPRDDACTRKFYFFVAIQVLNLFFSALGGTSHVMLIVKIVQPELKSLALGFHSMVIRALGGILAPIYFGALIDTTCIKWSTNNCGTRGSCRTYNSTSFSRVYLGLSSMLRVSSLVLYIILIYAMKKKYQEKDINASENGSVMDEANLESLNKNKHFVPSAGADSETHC
Settings: chinese hamster, cho, 10 µM
measurement label: residual activity (%)
Give your result in % as a bare value.

CCn1cc(C(=O)O)c(=O)c2ccc(C)nc21 [NALIDIXIC ACID]
63.37

For Cc1[nH]c2ccccc2c1CN(C)C [2-METHYL GRAMINE] the compound record lists residual activity as 39.17

For COc1nc(NC(C)C)nc(NC(C)C)n1 [PROMETON] the compound record lists residual activity as 114.4

Values were extracted from ChEMBL document CHEMBL3039007.
